Assignment: determine reported Shift for the given binders.
molecular target: human β2AR (human, UniProt P07550 2-365); experiment: cell-based or functional assay
Bridge positions count the residues as written; N and C are the ends. Square brackets hold non-standard residues; d marks the D form. Primed or numbered codes have the meaning given here. Pra″ = alkyne-bearing residue joined to Azk by a CuAAC triazole staple; Lys(N3) = [N-]=[N+]=NCCCC[C@H](N)C(=O)O
Numbers only.

Ac-FNDCRDIIQRMHLRQYEFL-OH [compound 68]
29
Ac-FNDCRDIIQRMHLRQYEWL-OH [compound 69]
55
Ac-KKKFN[Pra″]CRD[Lys(N3)]IQRMHLRQYEFL-OH (triazole 6-10) [compound 62]
93

Now, please, on to the next binder.
Need Shift, item Ac-FNDCRDIIQRMHLRQYELL-OH [compound 2] 13
